Target: vancomycin
Assay: plate assay: biotinylated peptide on streptavidin, biotinylated vancomycin titrated, streptavidin-AP detection
Where no end group is shown, it is not given here.
Reported EC50 values follow for various binders

* SCDMLFCENFSGSGNNWFS (cysteine pairing not given here; also: biotinylated, site not given here) [synthetic peptide comprising SEQ ID NO: 4] | 10000 nM
* SLIDMYGVCHNFDGAYDS (also: biotinylated, site not given here) [synthetic peptide comprising SEQ ID NO: 5] | 10000 nM
* PCELIDMFGNDHCP (cysteine pairing not given here; also: biotinylated, site not given here) [synthetic peptide comprising SEQ ID NO: 3] | 820 nM
* CLFDIFGVCHSFDGAYDS (cysteine pairing not given here; also: biotinylated, site not given here) [synthetic peptide comprising SEQ ID NO: 2] | 60 nM

# context switch: different binder, same EC50
Quick one: EC50 of CLIDMYGVCHNFDGAYDS (cysteine pairing not given here; also: biotinylated, site not given here) [synthetic peptide comprising SEQ ID NO: 1] ? 100 nM
